Tested on: HEK-293T
procedure-details: Multiplex assay against HEK293T
Format: toxicity, cell-based
experimental-parameters: human, 12 h, 1 µM, compound concentration 1 uM, replicate 2
Items are presented alongside their recorded Total Cell Count.

{"compound": "CCCn1c(=O)c2[nH]c(-c3cnn(Cc4cccc(C(F)(F)F)c4)c3)nc2n(CC)c1=O", "target-desc": "HEK-293T", "Total Cell Count": 239}
{"compound": "CCNc1cc(N[C@H]2CC[C@H](O)CC2)nc(Nc2ccc3c(ccn3Cc3ccccc3)c2)n1", "target-desc": "HEK-293T", "Total Cell Count": 1484}
{"compound": "O=C(Nc1ccc(-n2nc(-c3cccnc3)cc2C(F)(F)F)cn1)c1ccc(-c2ccccc2)c(F)c1", "target-desc": "HEK-293T", "Total Cell Count": 166}
{"compound": "COc1cc(N2CCN(C)CC2)ccc1Nc1ncc2c(n1)N(C)c1ccccc1C(=O)N2C", "target-desc": "HEK-293T", "Total Cell Count": 176}
{"compound": "CN1C2CCC1CC(OC(c1ccc(F)cc1)c1ccc(F)cc1)C2.Cl (stereo not drawn)", "target-desc": "HEK-293T", "Total Cell Count": 252}
{"compound": "CCCS(=O)(=O)c1nc(NC2CC2)cc(-c2ccc3c(ccn3C3CC(C)(C)NC(C)(C)C3)c2)n1", "target-desc": "HEK-293T", "Total Cell Count": 137}
{"compound": "C=C1/C(=C\\C=C2/CCC[C@]3(C)[C@@H]([C@H](C)/C=C/[C@H](C)C(C)C)CC[C@@H]23)C[C@@H](O)C[C@@H]1O", "target-desc": "HEK-293T", "Total Cell Count": 240}
{"compound": "Cc1cn(-c2cc(NC(=O)c3ccc(C)c(Nc4nccc(-c5cccnc5)n4)c3)cc(C(F)(F)F)c2)cn1", "target-desc": "HEK-293T", "Total Cell Count": 164}

----------
Tested on: U2OS
procedure-details: Multiplex assay against U2OS
Assay type: toxicity, cell-based
experimental-parameters: human, 12 h, 1 µM, compound concentration 1 uM, replicate 1
experimental-endpoint: Population Tubulin-Different-Phenotype (%)

{"compound": "O=C(Nc1ccc(-n2nc(-c3cccnc3)cc2C(F)(F)F)cn1)c1ccc(-c2ccccc2)c(F)c1 [BI 2049]", "reading": 12}
{"compound": "COc1cccc2cc(-c3nc([C@H]4CC[C@H](C(=O)O)CC4)n4ncnc(N)c34)[nH]c12 [OSI-027]", "reading": 21}
{"compound": "C=CCn1c(=O)c2cnc(Nc3ccc(N4CCN(C)CC4)cc3)nc2n1-c1cccc(C(C)(C)O)n1 [ADAVOSERTIB]", "reading": 21}
{"compound": "CCN1CCN(c2ccc(Nc3cc(N(C)C(=O)Nc4c(Cl)c(OC)cc(OC)c4Cl)ncn3)cc2)CC1 [INFIGRATINIB]", "reading": 71}

----------
// reported Population Mitotic Cells (%) for each item listed
System: Fibroblast
procedure-details: Multiplex assay against human fibroblast
Assay type: toxicity, cell-based
experimental-parameters: 24 h, 10 µM, compound concentration 10 uM, replicate 2
experimental-endpoint: Population Mitotic Cells (%)

{"compound": "O=C1NC(=O)C(c2cnc3ccccn23)=C1c1cn2c3c(cc(F)cc13)CN(C(=O)N1CCCCC1)CC2", "target-desc": "Fibroblast", "reading-unit": "%", "reading": 18}
{"compound": "CCCS(=O)(=O)Nc1ccc(F)c(C(=O)c2c[nH]c3ncc(Cl)cc23)c1F", "target-desc": "Fibroblast", "reading-unit": "%", "reading": 50}
{"compound": "Cl.O=c1c2cccn2c2ccccc2n1CCCN1CCC(c2ccc(Cl)cc2)CC1", "target-desc": "Fibroblast", "reading-unit": "%", "reading": 12}
{"compound": "Cn1nc(C(=O)NCc2ccc(C(=O)O)cc2)cc1-c1ccc2[nH]ccc2c1", "target-desc": "Fibroblast", "reading-unit": "%", "reading": 0}
{"compound": "O=C(Cc1ccc(-c2ccc(OCCN3CCOCC3)cc2)cn1)NCc1ccccc1", "target-desc": "Fibroblast", "reading-unit": "%", "reading": 33}
{"compound": "CCc1cccc(CC)c1NC(=O)c1nn(C)c2c1CCc1cnc(Nc3ccc(N4CCN(C)CC4)cc3OC)nc1-2", "target-desc": "Fibroblast", "reading-unit": "%", "reading": 33}
{"compound": "CCCn1c(=O)c2[nH]c(-c3cnn(Cc4cccc(C(F)(F)F)c4)c3)nc2n(CC)c1=O", "target-desc": "Fibroblast", "reading-unit": "%", "reading": 50}
{"compound": "COc1ccc(-c2ccc3c(N4CCOCC4)nc(N4C[C@@H](C)O[C@@H](C)C4)nc3n2)cc1CO", "target-desc": "Fibroblast", "reading-unit": "%", "reading": 0}
{"compound": "CCn1cc(-c2ccnc3[nH]c(-c4cccc(CN(C)C)c4)cc23)c(-c2ccc(NC(=O)N(C)C)cc2)n1", "target-desc": "Fibroblast", "reading-unit": "%", "reading": 80}
{"compound": "CCOc1cc2ncc(C#N)c(Nc3ccc(OCc4ccccn4)c(Cl)c3)c2cc1NC(=O)/C=C/CN(C)C", "target-desc": "Fibroblast", "reading-unit": "%", "reading": 87}
{"compound": "Cc1cn(-c2cc(NC(=O)c3ccc(C)c(Nc4nccc(-c5cccnc5)n4)c3)cc(C(F)(F)F)c2)cn1", "target-desc": "Fibroblast", "reading-unit": "%", "reading": 100}
{"compound": "CN1C2CCC1CC(OC(c1ccc(F)cc1)c1ccc(F)cc1)C2.Cl (configuration not stated)", "target-desc": "Fibroblast", "reading-unit": "%", "reading": 20}
{"compound": "COc1cc(N2CCN(C)CC2)ccc1Nc1ncc2c(n1)N(C)c1ccccc1C(=O)N2C", "target-desc": "Fibroblast", "reading-unit": "%", "reading": 23}
{"compound": "O=C(Nc1cccnn1)N1CCC(=Cc2cccc(Oc3ccc(C(F)(F)F)cn3)c2)CC1", "target-desc": "Fibroblast", "reading-unit": "%", "reading": 66}
{"compound": "Cl.Oc1ccc2c3c1O[C@H]1c4[nH]c5c(c4C[C@@]4(O)[C@@H](C2)N(CC2CC2)CC[C@]314)C[C@@]1(O)[C@H]2Cc3ccc(O)c4c3[C@@]1(CCN2CC1CC1)[C@H]5O4", "target-desc": "Fibroblast", "reading-unit": "%", "reading": 23}
{"compound": "Cc1ccc2nc(NCCN)c3ncc(C)n3c2c1.O=C(O)C(F)(F)F.O=C(O)C(F)(F)F", "target-desc": "Fibroblast", "reading-unit": "%", "reading": 22}
{"compound": "COCC(=O)NC/C=C/c1ccc2ncnc(Nc3ccc(Oc4ccc(C)nc4)c(C)c3)c2c1", "target-desc": "Fibroblast", "reading-unit": "%", "reading": 40}
{"compound": "COc1cc2ncnc(Nc3ccc(F)c(Cl)c3)c2cc1NC(=O)/C=C/CN1CCCCC1 [DACOMITINIB ANHYDROUS]", "target-desc": "Fibroblast", "reading-unit": "%", "reading": 66}
{"compound": "O=C(Nc1ccc(-c2ccnc(Nc3ccc(N4CCOCC4)cc3)n2)cc1)[C@@H]1CCCN1", "target-desc": "Fibroblast", "reading-unit": "%", "reading": 41}
{"compound": "O=C1N/C(=N/c2ccccc2F)S/C1=C\\c1ccc(C(=O)O)cc1", "target-desc": "Fibroblast", "reading-unit": "%", "reading": 40}
{"compound": "COC(=N)c1nc2ccc3ncnc(Nc4ccc(OC)cc4F)c3c2s1", "target-desc": "Fibroblast", "reading-unit": "%", "reading": 50}
{"compound": "C=CCn1c(=O)c2cnc(Nc3ccc(N4CCN(C)CC4)cc3)nc2n1-c1cccc(C(C)(C)O)n1", "target-desc": "Fibroblast", "reading-unit": "%", "reading": 0}
{"compound": "O=C(Nc1ccc(Cl)cc1)Nc1cccc(-c2cccc(N3CCCC3)n2)c1", "target-desc": "Fibroblast", "reading-unit": "%", "reading": 27}
{"compound": "COc1cccc2cc(-c3nc([C@H]4CC[C@H](C(=O)O)CC4)n4ncnc(N)c34)[nH]c12", "target-desc": "Fibroblast", "reading-unit": "%", "reading": 66}
{"compound": "CCCS(=O)(=O)c1nc(NC2CC2)cc(-c2ccc3c(ccn3C3CC(C)(C)NC(C)(C)C3)c2)n1", "target-desc": "Fibroblast", "reading-unit": "%", "reading": 10}
{"compound": "CCc1cccc(CC)c1NC(=O)c1nn(C)c2c1CCc1cnc(Nc3ccc(C(=O)NC4CCN(C)CC4)cc3OC(F)(F)F)nc1-2", "target-desc": "Fibroblast", "reading-unit": "%", "reading": 50}
{"compound": "Cc1cc(C)c(S(=O)(=O)N(Cc2ccc(-c3cccc(S(C)(=O)=O)c3)cc2)Cc2ccc(C(F)(F)F)o2)c(C)c1", "target-desc": "Fibroblast", "reading-unit": "%", "reading": 85}
{"compound": "CN1CCC(=C2c3ccccc3CC(=O)c3sccc32)CC1.O=C(O)/C=C/C(=O)O [KETOTIFEN FUMARATE]", "target-desc": "Fibroblast", "reading-unit": "%", "reading": 40}
{"compound": "O=C(Nc1ccc(-n2nc(-c3cccnc3)cc2C(F)(F)F)cn1)c1ccc(-c2ccccc2)c(F)c1", "target-desc": "Fibroblast", "reading-unit": "%", "reading": 100}
{"compound": "CCOc1cc(C(=O)N2CCC(N3CCN(C)CC3)CC2)ccc1Nc1ncc2c(n1)N(C1CCCC1)c1ccccc1C(=O)N2C", "target-desc": "Fibroblast", "reading-unit": "%", "reading": 11}
{"compound": "NC(=O)c1cccc(-c2cc(Nc3ccc(OC(F)(F)F)cc3)ncn2)c1", "target-desc": "Fibroblast", "reading-unit": "%", "reading": 60}
{"compound": "CN(C)C(=O)C(CCN1CCC(O)(c2ccc(Cl)cc2)CC1)(c1ccccc1)c1ccccc1.Cl [LOPERAMIDE HYDROCHLORIDE]", "target-desc": "Fibroblast", "reading-unit": "%", "reading": 1}

The origin of these recorded values is ChEMBL document CHEMBL4689842.
